assay: qHTS assay to identify small molecule HDAC inhibitors - cell viability counter screen (AID 1259365); details: HCT-116 viability, CellTiter-Glo ATP luminescence, 2 h; series mostly up to 92.4 µM; note: % is set by controls: 0 for no effect and ±100 for the full control effect; nearly all actives have a fitted effect of over 50% in size
Calls of active or inactive are those of the source. Calls come from the whole dose curve; as a rule, active = well fitted cell-killing curve with a large enough effect in the repeat runs; inconclusive = weak or mixed curves, or effect the other way; inactive = flat fitted curve, though single readings scatter.
measure_name: activity change, negative = cytotoxicity

N[C@H](C(=O)O)[C@@H](O)c1ccc(O)c(O)c1; inactive
Cc1cc(C)c(N=Nc2c(O)c(S(=O)(=O)O)cc3cc(S(=O)(=O)O)ccc23)cc1C; -2.91% [at 8.39 µM] (inactive)
CCC(C)(CCCC(C)C)OC(C)=O (centres undefined); inactive
CCN(CC#N)c1cccc(C)c1; inactive

* * *

experiment: qHTS RealTime-Glo MT Cell Viability Assay in HEK293 cells - 32 hour (AID 1224868); settings: RealTime-Glo luminescence; series mostly up to 76.8 µM; note: top concentration of the series differs between compounds; % is set by controls: 0 for no effect and ±100 for the full control effect; nearly all actives have a fitted effect of over 50% in size
Records with an inconclusive call do not appear. Activity calls are given as the source filed them. The call rests on the fitted dose curve; in most records, active means well fitted cell-killing curve with a large enough effect in the repeat runs; inconclusive means weak or mixed curves, or effect the other way; inactive means flat fitted curve, though single readings scatter.
measure_name: activity change, negative = cytotoxic

CCN1C=CN(C)C1C (configuration not stated); inactive
CCCn1cc[n+](C)c1C; inactive
NO; inactive
O=C(CO)[C@@H](O)[C@H](O)[C@@H](O)CO; inactive
Cc1nc2ccc(CN(C)c3ccc(C(=O)N[C@@H](CCC(=O)O)C(=O)O)s3)cc2c(=O)[nH]1; inactive
N[C@H](C(=O)O)[C@@H](O)c1ccc(O)c(O)c1; inactive
c1ccc2sc(SN3CCOCC3)nc2c1; inactive
CO[C@@]1(NC(=O)CSC[C@@H](N)C(=O)O)C(=O)N2C(C(=O)O)=C(CSc3nnnn3C)CS[C@@H]21; inactive
CC1(C)OC[C@@H](COC(=O)CCc2ccc(OC[C@@H](O)CNCCNC(=O)N3CCOCC3)cc2)O1; inactive
CC1OC1C1CCC2(C)OC2C1 (configuration not stated); inactive
CC(=O)c1ccccc1[N+](=O)[O-]; inactive
CCCC[N+](C)(CCCC)CCCC; inactive

* * *

assay: qHTS assay for small molecule disruptors of the mitochondrial membrane potential (AID 720635); settings: HepG2 mitochondrial membrane potential, Mito-MPS dye ratio; series mostly up to 83.2 µM
Inconclusive results are not listed. The source made the active and inactive calls. The call rests on the fitted dose curve; in most records, active means well fitted inhibition curve with a large enough effect in the signal ratio in the repeat runs; inconclusive means weak or mixed curves, or effect the other way; inactive means flat fitted curve, though single readings scatter; the % refers to the signal ratio.
Labels: 1 for active, -1 for inactive

COc1cc(C)nc(-n2nc(C)cc2OC)n1; -1
O=C(O)CNC(=O)c1ccccc1; -1
O=C1c2ccccc2C(=O)c2cc(O)ccc21; 1
CCCO[Si](OCCC)(OCCC)OCCC; -1
CC(C#N)(CCC(=O)O)N=NC(C)(C#N)CCC(=O)O (centres undefined); -1
NCCCC[C@H](N[C@@H](CCc1ccccc1)C(=O)O)C(=O)N1CCC[C@H]1C(=O)O; -1
C[N+]12CCC(CC1)C(OC(=O)C(O)(c1ccccc1)c1ccccc1)C2 (centres undefined); -1
CCOc1ccccc1OCC; -1
CC(C)(CCC(=O)O)C(=O)O; -1
O=CN(CCO)CCO; -1
CCOC(=O)c1ccccc1; -1
CCN(C=O)CC; -1
CN(C)C(=O)Oc1ccc[n+](C)c1; -1
O=C(O)Cc1csc(-c2ccc(Cl)cc2)n1; -1

* * *

Target: Aryl hydrocarbon receptor (Homo sapiens)
Experiment: qHTS assay to identify small molecule that activate the aryl hydrocarbon receptor (AhR) signaling pathway (AID 743085);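 note: HG2L7.5c1 human HepG2 liver cells with stably integrated DRE-driven firefly reporter; % is set by controls: 0 for no effect and ±100 for the full control effect; nearly all actives have a fitted effect of over 15% in size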
Conditions: HepG2 AhR-luc (HG2L7.5c1), luciferase, 24 h; series mostly up to 70.3 µM
Source text: U.S. Tox21 Program National Center for Advancing Translational Sciences [NCATS] NIH Chemical Genomics Center [NCGC] U.S. Environmental Protection Agency [EPA] National Institutes of Environmental Health Sciences [NIEHS] National Toxicology Program [NTP] U.S. Food and Drug Administration [FDA] Tox21 Assay overview: The Aryl hydrocarbon Receptor (AhR), a member of the family of basic helix-loop-helix transcription factors, is crucial to adaptive responses to environmental changes. […]
Inconclusive results are not listed. Activity calls are given as the source filed them. Calls come from the whole dose curve; as a rule, active = well fitted activation curve with a large enough effect in the repeat runs; inconclusive = weak or mixed curves; inactive = no such curve, though single readings can be large or run the other way.
measure_name: outcome

C=COC(=O)C(C)(CC)CCC(C)C (stereo not drawn); inactive
CCCCCCCCN1CCCC1=O; inactive
CC(C)(N)C#N; inactive

* * *

target: Cytochrome P450 2C9 (Homo sapiens) (UniProt P11712); assay: Cytochrome P450 Family 2 Subfamily C Member 9 (CYP2C9) small molecule antagonists: luciferase reporter qHTS assay (AID 1671198); details: P450-Glo CYP2C9 enzyme assay, luciferin luminescence; series mostly up to 115 µM; note: nearly all actives have a fitted effect of over 50% in size
Sequence (P11712 whole entry, looked up): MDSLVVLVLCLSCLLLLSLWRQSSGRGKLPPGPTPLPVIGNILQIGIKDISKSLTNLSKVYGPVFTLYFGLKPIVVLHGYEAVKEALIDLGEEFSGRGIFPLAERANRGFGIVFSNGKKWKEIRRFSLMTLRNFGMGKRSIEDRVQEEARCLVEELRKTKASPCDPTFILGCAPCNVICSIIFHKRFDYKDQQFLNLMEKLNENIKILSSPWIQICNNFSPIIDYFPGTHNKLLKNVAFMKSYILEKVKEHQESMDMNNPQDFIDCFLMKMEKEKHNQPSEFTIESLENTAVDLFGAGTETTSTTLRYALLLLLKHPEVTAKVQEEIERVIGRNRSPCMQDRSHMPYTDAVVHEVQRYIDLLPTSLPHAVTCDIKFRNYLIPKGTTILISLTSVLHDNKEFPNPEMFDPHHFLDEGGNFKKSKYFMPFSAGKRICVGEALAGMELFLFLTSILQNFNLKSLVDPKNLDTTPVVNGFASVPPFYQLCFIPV
Results filed as inconclusive are left out. Activity calls are given as the source filed them. Calls come from the whole dose curve; as a rule, active = well fitted inhibition curve with a large enough effect in the repeat runs; inconclusive = weak or mixed curves; inactive = no such curve, though single readings can be large or run the other way.
Labels: yes (1) for active, no (0) for inactive

N[C@H](C(=O)O)[C@@H](O)c1ccc(O)c(O)c1; no (0)
CO[Si](C)(OC)c1ccccc1; yes (1)
NC(=O)NC1N=C([O][Al])NC1=O (configuration not stated); no (0)
[O-][n+]1cccc(CO)c1; no (0)
Cc1ccc(C(=O)c2ccccc2)cc1; yes (1)
C[C@H]1C[C@H]2[C@@H]3CCC4=CC(=O)C=C[C@]4(C)[C@H]3C(=O)C[C@]2(C)[C@@]1(O)C(=O)CO; yes (1)
C[N+]1(C)CCCC(OC(=O)C(O)(c2ccccc2)c2ccccc2)C1 (configuration not stated); no (0)
CCOC(=O)c1ccccc1; no (0)
FB(F)F; no (0)
O=C(O)CC(C(=O)O)S(=O)(=O)O (configuration not stated); no (0)
CCOC(=O)COC(=O)c1ccccc1C(=O)OCC; yes (1)
CC(=O)N1C[C@H](O)C[C@H]1C(=O)O; no (0)
CC1=CCC(O)(C(C)C)CC1 (configuration not stated); no (0)
Cc1ccc(-c2ncc(Cl)cc2-c2ccc(S(C)(=O)=O)cc2)cn1; yes (1)
NC(=O)N[C@@H](CCC(=O)O)C(=O)O; no (0)
CC(C)[C@H]1CC[C@@H](C)CC1=O; no (0)
Nc1c2c(nc3c1CCC3)CCCC2; no (0)
C[C@@H]1CCC[C@H](C)N1; no (0)
C[C@H]1[C@H](NC(=O)/C(=N/OC(C)(C)C(=O)O)c2csc(N)n2)C(=O)N1S(=O)(=O)O (stereo in doubt); no (0)
CO[C@@]1(NC(=O)C(C(=O)O)c2ccc(O)cc2)C(=O)N2C(C(=O)O)=C(CSc3nnnn3C)CO[C@@H]21 (some centres not stated); no (0)
Cc1ccccc1N=C(N)N=C(N)N; no (0)
O=C1c2ccccc2C(=O)c2cc(O)ccc21; yes (1)
CCOC(=O)COc1cc(-n2ncc(C(F)(F)F)c(C)c2=O)c(F)cc1Cl; yes (1)
O=S(=O)(O)c1cccc2c(S(=O)(=O)O)cccc12; yes (1)
O=C(O)CCSCCC(=O)O; no (0)
CCCn1cc[n+](C)c1C; no (0)
CC1=NS(=O)(=O)c2cc(Cl)ccc2N1; no (0)

* * *

target: Vitamin D3 receptor (Homo sapiens) (UniProt P11473); assay: qHTS assay to identify small molecule agonists of the vitamin D receptor (VDR) signaling pathway (AID 743222); conditions: HEK293T VDR-UAS-bla, beta-lactamase FRET ratio, 16 h; series mostly up to 63.5 µM; note: % is set by controls: 0 for no effect and ±100 for the full control effect
Sequence (P11473 whole entry, looked up): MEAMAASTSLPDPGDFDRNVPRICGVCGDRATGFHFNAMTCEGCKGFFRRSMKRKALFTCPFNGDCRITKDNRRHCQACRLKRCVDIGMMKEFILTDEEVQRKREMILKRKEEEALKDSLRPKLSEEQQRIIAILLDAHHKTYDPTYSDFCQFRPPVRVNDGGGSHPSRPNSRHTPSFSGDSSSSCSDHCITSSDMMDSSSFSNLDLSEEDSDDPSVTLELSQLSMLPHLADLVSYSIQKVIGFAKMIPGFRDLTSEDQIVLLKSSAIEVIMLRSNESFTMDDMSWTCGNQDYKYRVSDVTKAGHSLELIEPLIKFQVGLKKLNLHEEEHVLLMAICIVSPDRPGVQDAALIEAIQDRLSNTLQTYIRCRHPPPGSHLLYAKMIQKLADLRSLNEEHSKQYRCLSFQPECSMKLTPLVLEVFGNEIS
Inconclusive results are not listed. Active and inactive are the calls of the source. Calls come from the whole dose curve.
measure_name: activation

C[N+](C)(CCOc1ccccc1)Cc1cccs1; inactive
Cc1ccccc1N=C(N)N=C(N)N; inactive
Clc1cc(Cl)cc(Cl)c1; inactive
C=CC(=O)OCCCl; inactive
CNCC(O)c1ccc(O)c(O)c1 (centres undefined); inactive
CCOC(=O)OC(C)OC1=C(C(=O)Nc2ccccn2)N(C)S(=O)(=O)c2ccccc21 (centres undefined); inactive
NCCCC(N)(C(=O)O)C(F)F (centres undefined); inactive
C[N+]1(C)[C@@H]2CC(OC(=O)[C@H](CO)c3ccccc3)C[C@H]1[C@@H]1O[C@@H]12 (some centres undefined); inactive
CC1(C)OC[C@@H](COC(=O)CCc2ccc(OC[C@@H](O)CNCCNC(=O)N3CCOCC3)cc2)O1; inactive
CC1=NN(c2cccc(S(=O)(=O)O)c2)C(=O)C1; inactive
CCCCN1C=CN(C)C1; inactive
O=C(O)CCCC[P+](c1ccccc1)(c1ccccc1)c1ccccc1; inactive
COCCOC[C@H](CC1(C(=O)NC2CCC(C(=O)O)CC2)CCCC1)C(=O)Oc1ccc2c(c1)CCC2 (some centres undefined); inactive
C=CCOCC(O)CO (centres undefined); inactive

* * *

assay: qHTS assay to identify small molecule antagonists of the estrogen related receptor (ERR) signaling pathway from Tox21 library (AID 1224848); conditions: ERR reporter cell line, luciferase antagonist mode, 18 h; series mostly up to 92.4 µM; note: % is set by controls: 0 for no effect and ±100 for the full control effect; nearly all actives have a fitted effect of over 50% in size
Records with an inconclusive call do not appear. Activity calls are given as the source filed them. Calls follow the shape of the dose curve; as a rule, active = well fitted inhibition curve with a large enough effect in the repeat runs; inconclusive = weak or mixed curves; inactive = no such curve, though single readings can be large or run the other way.
measure_name: activity, negative = inhibition

CCC(C(=O)NC(=O)NC(C)=O)c1ccccc1 (configuration not stated); inactive
O=C(CO)[C@@H](O)[C@H](O)[C@@H](O)CO; inactive
CCCCCCC1CCC(=O)O1 (configuration not stated); inactive
Cc1cc(C)c(N=Nc2c(O)c(S(=O)(=O)O)cc3cc(S(=O)(=O)O)ccc23)cc1C; -9.99% [at 8.39 µM] (inactive)
CN(C)CCCCCCN(C)C; inactive
CCCCN1C=CN(C)C1; 18.5% [at 19 µM] (inactive)
CO[C@@]1(NC(=O)CSC[C@@H](N)C(=O)O)C(=O)N2C(C(=O)O)=C(CSc3nnnn3C)CS[C@@H]21; inactive
CO/N=C(\C(=O)N[C@@H]1C(=O)N2C(C(=O)O)=C(CSc3nc(=O)c(O)nn3C)CS[C@H]12)c1csc(N)n1; inactive
CCOC(=O)c1ccccc1; inactive
c1ccc2sc(SN3CCOCC3)nc2c1; inactive
CC(C)(C)c1ccc(-c2ccc(C(C)(C)C)cc2)cc1; inactive
CNCC(O)c1ccc(O)c(O)c1 (configuration not stated); inactive
